Property: inhibition at 1 µM; scope: individual molecules
Biological target: recombinant IRAK-4 kinase (Homo sapiens, UniProt Q9NWZ3)
Construct: purchased Millipore, USA
Sequence (Q9NWZ3 1-460): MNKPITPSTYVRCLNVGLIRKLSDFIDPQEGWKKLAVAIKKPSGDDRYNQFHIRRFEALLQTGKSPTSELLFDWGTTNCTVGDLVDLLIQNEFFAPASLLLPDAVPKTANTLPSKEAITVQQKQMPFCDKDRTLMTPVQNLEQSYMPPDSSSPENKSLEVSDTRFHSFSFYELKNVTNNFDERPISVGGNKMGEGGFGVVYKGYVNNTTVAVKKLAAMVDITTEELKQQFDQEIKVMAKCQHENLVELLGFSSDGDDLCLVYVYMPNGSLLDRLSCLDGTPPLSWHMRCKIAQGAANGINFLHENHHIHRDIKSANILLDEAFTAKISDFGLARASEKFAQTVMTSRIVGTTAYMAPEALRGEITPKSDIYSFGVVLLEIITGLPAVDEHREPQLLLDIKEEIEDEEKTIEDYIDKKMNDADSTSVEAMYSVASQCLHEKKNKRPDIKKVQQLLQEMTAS
Assay: IRAK-4 Biochemical Assay (TR-FRET, percent inhibition)
Conditions: read-out: % inhibition of IRAK-4 @ 1 μM, compound at 1 μM; TR-FRET, 20 μM ATP, 100 nM Biotin Histone H3
Where a name gives a salt, the structure may show the parent alone.

>  <MOLECULE>
Cc1ccc(-c2nc3nc(N4CCOCC4)sc3cc2NC(=O)c2cnn3cccnc23)nc1

>  <inhibition at 1 µM [%]>
98

$$$$
>  <MOLECULE>
NCC(=O)O[C@H]1CCN(c2cncc(C(=O)Nc3cc4sc(N5CCOCC5)nc4nc3N3CCCCC3)n2)C1

>  <inhibition at 1 µM [%]>
97

$$$$
>  <MOLECULE>
O=C(Nc1cc2sc(N3CCOCC3)nc2nc1N1CCCCC1)c1cccc(N2CCC(O)CC2)n1

>  <inhibition at 1 µM [%]>
96

$$$$
>  <MOLECULE>
NCC(=O)O[C@H]1CCN(c2cccc(C(=O)Nc3cc4sc(N5CCOCC5)nc4nc3N3CCCCC3)n2)C1 [Example 36, 2,2,2-trifluoroacetate]

>  <inhibition at 1 µM [%]>
99

$$$$
>  <MOLECULE>
O=C(Nc1cc2sc(N3CCOCC3)nc2nc1N1CCC[C@@H](O)C1)c1cccc(N2CC[C@H](O)C2)n1

>  <inhibition at 1 µM [%]>
93

$$$$
>  <MOLECULE>
O=C(Nc1cc2sc(N3CCOCC3)nc2nc1N1CCCCC1)c1ccnc(N2CCC(O)C2)n1 (stereo not drawn)

>  <inhibition at 1 µM [%]>
97

$$$$
>  <MOLECULE>
NCC(=O)OC1CCN(c2cccc(C(=O)Nc3cc4sc(N5CCOCC5)nc4nc3N3CCCCC3)n2)CC1

>  <inhibition at 1 µM [%]>
95

$$$$
>  <MOLECULE>
O=C(Nc1cc2sc(N3CCOCC3)nc2nc1N1CCC[C@@H](O)C1)c1cccc(N2CCC(O)CC2)n1

>  <inhibition at 1 µM [%]>
99

$$$$
>  <MOLECULE>
Nc1ccc(-c2cccc(C(=O)Nc3cc4sc(N5CCOCC5)nc4nc3N3CCCCC3)n2)cn1

>  <inhibition at 1 µM [%]>
78

$$$$
>  <MOLECULE>
O=C(Nc1cc2sc(N3CCOCC3)nc2nc1N1CC[C@@H](O)C1)c1cnn2cccnc12 [Example 103, hydrochloride]

>  <inhibition at 1 µM [%]>
97

$$$$
>  <MOLECULE>
O=C(Nc1cc2sc(N3CCOCC3)nc2nc1C(F)(F)F)c1cccc(N2CCC(O)C2)n1 (stereo not drawn)

>  <inhibition at 1 µM [%]>
96

$$$$
>  <MOLECULE>
Cc1cc(-c2cccc(C(=O)Nc3cc4sc(N5CCOCC5)nc4nc3N3CCC[C@@H](O)C3)n2)ccn1

>  <inhibition at 1 µM [%]>
98

$$$$
>  <MOLECULE>
Cn1cc(-c2nc(C(=O)Nc3cc4sc(N5CCOCC5)nc4nc3N3CCCCC3)co2)cc(F)c1=O

>  <inhibition at 1 µM [%]>
98

$$$$
>  <MOLECULE>
Cc1cc(-c2nc(C(=O)Nc3cc4oc(N5CCOCC5)nc4nc3N3CCCC(O)(CO)C3)co2)ccn1 (stereo not drawn) [Example 15, hydrochloride]

>  <inhibition at 1 µM [%]>
100

$$$$
>  <MOLECULE>
Cc1cc(-c2nc(C(=O)Nc3cc4sc(N5CCNCC5)nc4nc3N3CCCCC3)co2)ccn1 [Example 7, hydrochloride]

>  <inhibition at 1 µM [%]>
99

$$$$
